Source: patent US10626148B2

# protocolDetails: In-vivo toxicology, systemic toxicity
# protocolConditions: female, CD-1, mouse, in vivo, 100 mg/kg
observationType: LD50 at 14 days

Given the entry CN[C@H](CC(C)C)C(=O)N[C@H]1C(=O)N[C@@H](CC(N)=O)C(=O)N[C@H]2C(=O)N[C@H]3C(=O)N[C@H](C(=O)N[C@H](C(=O)NCCCCCCN(Cc4ccccn4)Cc4ccccn4)c4cc(O)cc(O)c4-c4cc3ccc4O)[C@H](O)c3ccc(c(Cl)c3)Oc3cc2cc(c3O[C@H]2OC(CO)[C@H](O)C(O)C2O[C@H]2CC(C)(N)[C@H](O)C(C)O2)Oc2ccc(cc2Cl)[C@H]1O (stereo partly shown) [Compound 4, Dipicolyl-vancomycin conjugate] , report its measured LD50 at 14 days.
> 100 mg/kg
